# ASSAY PROCEDURE: xn = mol fraction of the nth substance listed, in the solute-free solvent
# MEASUREMENT CONTEXT: 313.15 K; x2 = 0.8
ASSAY METRIC: solubility (g/100 g solution)
Write no unit; give the number alone.

CC(C)C(=O)Nc1ccc([N+](=O)[O-])c(C(F)(F)F)c1 + CC(C)=O + CC(C)O : 72
Cl.NC1CCSC1=O (centres undefined) + CO + CC#N : 9.55
CC(C)C(=O)Nc1ccc([N+](=O)[O-])c(C(F)(F)F)c1 + CCOC(C)=O + CC(C)O : 56.7

Please look at the following compound next.
Prompt: Which value of solubility (g/100 g solution) has been reported for CC(C)C(=O)Nc1ccc([N+](=O)[O-])c(C(F)(F)F)c1 + C1CCOC1 + CC(C)O in the records?
Completion: 71.8

* * *

# ASSAY PROCEDURE: xn = mol fraction of the nth substance listed, in the solute-free solvent
# MEASUREMENT CONTEXT: 303.15 K; x2 = 0.5
Listing of recorded solubility (g/100 g solution) by entry.

Reference set (2 entries):
CC(C)C(=O)Nc1ccc([N+](=O)[O-])c(C(F)(F)F)c1 + CCOC(C)=O + CC(C)O : 49.8
Cl.NC1CCSC1=O (centres undefined) + CO + CC#N : 3.91

Prompt: Which value of solubility (g/100 g solution) has been reported for CC(C)C(=O)Nc1ccc([N+](=O)[O-])c(C(F)(F)F)c1 + C1CCOC1 + CC(C)O in the records?
Completion: 59.1

Prompt: # iterate: CC(C)C(=O)Nc1ccc([N+](=O)[O-])c(C(F)(F)F)c1 + CC(C)=O + CC(C)O
Completion: 58.8

* * *

# ASSAY PROCEDURE: xn = mol fraction of the nth substance listed, in the solute-free solvent
# MEASUREMENT CONTEXT: 313.15 K; x2 = 0.06974
Listing of recorded solubility (g/100 g solution) by entry.

Reference set (2 entries):
O=c1cc(CBr)c2ccccc2[nH]1 + CC(C)O + O : 0.0958
O=c1cc(CBr)c2ccccc2[nH]1 + CCCO + O : 0.112

Prompt: Which value of solubility (g/100 g solution) has been reported for CC(C)C(=O)Nc1ccc([N+](=O)[O-])c(C(F)(F)F)c1 + CC(C)O + O in the records?
Completion: 0.15

Prompt: # iterate: O=C1C=CC(=O)N1c1ccccc1Br + CC(C)O + O
Completion: 3.77

Prompt: # iterate: Nc1ncc(Br)nc1Br + CC(C)O + O
Completion: 0.101

* * *

# ASSAY PROCEDURE: xn = mol fraction of the nth substance listed, in the solute-free solvent
# MEASUREMENT CONTEXT: 318.15 K; x2 = 0.6101
ASSAY METRIC: solubility (g/100 g solution)
Write no unit; give the number alone.

Reference set (4 entries):
CC(C)C(=O)Nc1ccc([N+](=O)[O-])c(C(F)(F)F)c1 + CCO + O : 27.2
Nc1cc(-c2ccncc2)c[nH]c1=O + CCO + O : 0.029
O=C1C=CC(=O)N1c1ccccc1Br + CCO + O : 19.9
Nc1ncc(Br)nc1Br + CCO + O : 1.03

Prompt: Which value of solubility (g/100 g solution) has been reported for O=c1cc(CBr)c2ccccc2[nH]1 + CCO + O in the records?
Completion: 0.224

* * *

# ASSAY PROCEDURE: xn = mol fraction of the nth substance listed, in the solute-free solvent
# MEASUREMENT CONTEXT: 323.15 K; x2 = 0.1436
Listing of recorded solubility (g/100 g solution) by entry.

Reference set (2 entries):
Nc1ncc(Br)nc1Br + CCO + O : 0.354
CC(C)C(=O)Nc1ccc([N+](=O)[O-])c(C(F)(F)F)c1 + CCO + O : 0.568

Prompt: Which value of solubility (g/100 g solution) has been reported for Nc1cc(-c2ccncc2)c[nH]c1=O + CCO + O in the records?
Completion: 0.00941

Prompt: # iterate: O=C1C=CC(=O)N1c1ccccc1Br + CCO + O
Completion: 9.86

* * *

# ASSAY PROCEDURE: xn = mol fraction of the nth substance listed, in the solute-free solvent
# MEASUREMENT CONTEXT: 283.15 K; x2 = 0.2812
Listing of recorded solubility (g/100 g solution) by entry.
Write no unit; give the number alone.

O=C1C=CC(=O)N1c1ccccc1Br + CCO + O : 4.34

Prompt: Which value of solubility (g/100 g solution) has been reported for CC(C)C(=O)Nc1ccc([N+](=O)[O-])c(C(F)(F)F)c1 + CCO + O in the records?
Completion: 1.09

Prompt: # iterate: Nc1cc(-c2ccncc2)c[nH]c1=O + CCO + O
Completion: 0.00605

Prompt: # iterate: Nc1ncc(Br)nc1Br + CCO + O
Completion: 0.256

Prompt: # iterate: O=c1cc(CBr)c2ccccc2[nH]1 + CCO + O
Completion: 0.0715

* * *

Listing of recorded solubility (g/100 g solution) by entry.
# ASSAY PROCEDURE: xn = mol fraction of the nth substance listed, in the solute-free solvent
# MEASUREMENT CONTEXT: 303.15 K; x2 = 0.6101
Write no unit; give the number alone.

O=c1cc(CBr)c2ccccc2[nH]1 + CCO + O : 0.164
CC(C)C(=O)Nc1ccc([N+](=O)[O-])c(C(F)(F)F)c1 + CCO + O : 19

Prompt: Which value of solubility (g/100 g solution) has been reported for O=C1C=CC(=O)N1c1ccccc1Br + CCO + O in the records?
Completion: 12.9

Prompt: # iterate: Nc1ncc(Br)nc1Br + CCO + O
Completion: 0.729

Prompt: # iterate: Nc1cc(-c2ccncc2)c[nH]c1=O + CCO + O
Completion: 0.0202

* * *

# ASSAY PROCEDURE: xn = mol fraction of the nth substance listed, in the solute-free solvent
# MEASUREMENT CONTEXT: 308.15 K; x2 = 0.7788
Listing of recorded solubility (g/100 g solution) by entry.
Write no unit; give the number alone.

Nc1ncc(Br)nc1Br + CCO + O : 1

Prompt: Which value of solubility (g/100 g solution) has been reported for O=c1cc(CBr)c2ccccc2[nH]1 + CCO + O in the records?
Completion: 0.182

Prompt: # iterate: O=C1C=CC(=O)N1c1ccccc1Br + CCO + O
Completion: 15.8

Prompt: # iterate: CC(C)C(=O)Nc1ccc([N+](=O)[O-])c(C(F)(F)F)c1 + CCO + O
Completion: 30.7

Prompt: # iterate: Nc1cc(-c2ccncc2)c[nH]c1=O + CCO + O
Completion: 0.026

* * *

# ASSAY PROCEDURE: xn = mol fraction of the nth substance listed, in the solute-free solvent
# MEASUREMENT CONTEXT: 318.15 K; x2 = 0.1436
Please use Fulfilled whenever solubility (g/100 g solution) is not below 0.5, and Not fulfilled whenever it is.

Solved entries (count: 4):
CC(C)C(=O)Nc1ccc([N+](=O)[O-])c(C(F)(F)F)c1 + CCO + O : Not fulfilled
O=C1C=CC(=O)N1c1ccccc1Br + CCO + O : Fulfilled
Nc1ncc(Br)nc1Br + CCO + O : Not fulfilled
Nc1cc(-c2ccncc2)c[nH]c1=O + CCO + O : Not fulfilled

Prompt: Please tell me: is the compound O=c1cc(CBr)c2ccccc2[nH]1 + CCO + O at or over 0.5 in terms of solubility (g/100 g solution)?
Completion: Not fulfilled

* * *

# ASSAY PROCEDURE: xn = mol fraction of the nth substance listed, in the solute-free solvent
# MEASUREMENT CONTEXT: 293.15 K; x2 = 0.5454
Listing of recorded solubility (g/100 g solution) by entry.
Write no unit; give the number alone.

Prompt: Which value of solubility (g/100 g solution) has been reported for O=c1cc(CBr)c2ccccc2[nH]1 + CCCO + O in the records?
Completion: 0.141

Prompt: # iterate: Nc1ncc(Br)nc1Br + CC(C)O + O
Completion: 0.298

Prompt: # iterate: O=C1C=CC(=O)N1c1ccccc1Br + CC(C)O + O
Completion: 6.75

Prompt: # iterate: CC(C)C(=O)Nc1ccc([N+](=O)[O-])c(C(F)(F)F)c1 + CC(C)O + O
Completion: 17.6

Prompt: # iterate: O=c1cc(CBr)c2ccccc2[nH]1 + CC(C)O + O
Completion: 0.1

* * *

# ASSAY PROCEDURE: xn = mol fraction of the nth substance listed, in the solute-free solvent
# MEASUREMENT CONTEXT: 308.15 K; x2 = 0.1666
Please use label 1 whenever solubility (g/100 g solution) is not below 2, and label 0 whenever it is.

Solved entries (count: 4):
O=c1cc(CBr)c2ccccc2[nH]1 + CCCO + O : label 0
CC(C)C(=O)Nc1ccc([N+](=O)[O-])c(C(F)(F)F)c1 + CC(C)O + O : label 0
O=C1C=CC(=O)N1c1ccccc1Br + CC(C)O + O : label 1
O=c1cc(CBr)c2ccccc2[nH]1 + CC(C)O + O : label 0

# next molecule below
Prompt: Please tell me: is the molecule Nc1ncc(Br)nc1Br + CC(C)O + O at or over 2 in terms of solubility (g/100 g solution)?
Completion: label 0
